Value source: PubChem BioAssay AID2060901

# Tested on: 422866-222-R5-J1-PDC complex spheroids viability
# experiment description: Anticancer human tumor 422866-222-R5-J1-PDC patient-derived pancreatic adenocarcinoma cell line growth inhibition [RAS]
# condition notes: second compound 1 µM; first compound 10 µM; stronger effect = lower value
Record form. Attribute: viability, T/C. Fill in for each entry.
Numbers only, in %.

- CC(=O)OC12COC1CC(O)C1(C)C(=O)C(O)C3=C(C)C(OC(=O)C(O)C(NC(=O)OC(C)(C)C)c4ccccc4)CC(O)(C(OC(=O)c4ccccc4)C21)C3(C)C (centres undefined) + C=CC(=O)N1CCN(c2nc(OCC3CCCN3C)nc3c(F)c(-c4nc(N)cc(C)c4C(F)(F)F)c(Cl)cc23)C(C)C1: 22.6
- CC(C)NCC(C(=O)N1CCN(c2ncnc3c2C(C)CC3O)CC1)c1ccc(Cl)cc1 (centres undefined) + C=CC(=O)N1CCN(c2nc(OCC3CCCN3C)nc3c(F)c(-c4nc(N)cc(C)c4C(F)(F)F)c(Cl)cc23)C(C)C1: 12.6
- CC(C)NCC(C(=O)N1CCN(c2ncnc3c2C(C)CC3O)CC1)c1ccc(Cl)cc1 (centres undefined) + C#Cc1c(F)ccc2cc(O)cc(-c3ncc4c(N5CC6CCC(C5)N6)nc(OCC56CCCN5CC(F)C6)nc4c3F)c12: 58.9

Consider now this further compound.
Please give the measured viability, T/C for this compound: C[C@@H](NC(=O)c1ncnc(N)c1Cl)c1ncc(C(=O)Nc2cc(C(F)(F)F)c(Cl)cn2)s1 + C#Cc1c(F)ccc2cc(O)cc(-c3ncc4c(N5CC6CCC(C5)N6)nc(OCC56CCCN5CC(F)C6)nc4c3F)c12
46.7

###

Record form. Attribute: IC50. Fill in for each entry.
# Tested on: 422866-222-R5-J1-PDC complex spheroids viability
# experiment description: Anticancer human tumor 422866-222-R5-J1-PDC cell line growth inhibition [RAS];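 note: spheroids exposed to compounds for 7 days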
# condition notes: curve of first compound; second compound 0.1 µM

- O=C(c1ccc(F)c(F)c1Nc1ccc(I)cc1F)N1CC(O)([C@@H]2CCCCN2)C1 + C=CC(=O)N1CCN(c2nc(OCC3CCCN3C)nc3c(F)c(-c4nc(N)cc(C)c4C(F)(F)F)c(Cl)cc23)C(C)C1: < 0.00316 µM

Could you share what IC50 was measured for CC(=O)OC12COC1CC(O)C1(C)C(=O)C(O)C3=C(C)C(OC(=O)C(O)C(NC(=O)OC(C)(C)C)c4ccccc4)CC(O)(C(OC(=O)c4ccccc4)C21)C3(C)C (configuration not stated) + C=CC(=O)N1CCN(c2nc(OCC3CCCN3C)nc3c(F)c(-c4nc(N)cc(C)c4C(F)(F)F)c(Cl)cc23)C(C)C1 , tested on 422866-222-R5-J1-PDC complex spheroids viability?
< 0.0316 µM

###

# Test system: 422866-222-R5-J1-PDC complex spheroids viability
# experiment description: Anticancer human tumor 422866-222-R5-J1-PDC cell line growth inhibition [RAS];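 note: spheroids exposed to compounds for 7 days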;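 for viability, T/C: 100% = DMSO vehicle control viability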
# condition notes: second compound 0.003 µM; first compound 1 µM; stronger effect = lower value
Output Condition met for records whose viability, T/C is lower than 20%, Condition not met for records at or above 20%.

Use the examples below as a reference point.
* C=CC(=O)Nc1cc(Nc2nccc(-c3cn(C)c4ccccc34)n2)c(OC)cc1N(C)CCN(C)C + CCn1c(-c2cccnc2C(C)OC)c2c3cc(ccc31)N1CCOC(CC(NC(=O)C(C(C)C)N(C)C(=O)C3(F)CCN(C(=O)C#CC(C)(C)N(C)C)CC3)C(=O)N3CCCC(N3)C(=O)OCC(C)(C)C2)C1 | Condition met
* O=C(c1ccc(F)c(F)c1Nc1ccc(I)cc1F)N1CC(O)([C@@H]2CCCCN2)C1 + CCn1c(-c2cc(N3CCN(C)CC3)cnc2C(C)OC)c2c3cc(ccc31)-c1csc(n1)CC(NC(=O)C1CC1C)C(=O)N1CCCC(N1)C(=O)OCC(C)(C)C2 | Condition met
* Cc1nc(N2CCC3(CC2)COC(C)C3N)c(CO)nc1Sc1ccnc(N)c1Cl (stereo not given) + CCn1c(-c2cc(N3CCN(C)CC3)cnc2C(C)OC)c2c3cc(ccc31)-c1csc(n1)CC(NC(=O)C1CC1C)C(=O)N1CCCC(N1)C(=O)OCC(C)(C)C2 | Condition met
* CC(Nc1ccc2c(c1)OCCn1cc(N3C(=O)OCC3C(F)F)nc1-2)C(N)=O (stereo not given) + CCn1c(-c2cccnc2C(C)OC)c2c3cc(ccc31)N1CCOC(CC(NC(=O)C(C(C)C)N(C)C(=O)C3(F)CCN(C(=O)C#CC(C)(C)N(C)C)CC3)C(=O)N3CCCC(N3)C(=O)OCC(C)(C)C2)C1 | Condition met
* CCN1CCN(Cc2ccc(Nc3ncc(F)c(-c4cc(F)c5nc(C)n(C(C)C)c5c4)n3)nc2)CC1 + CCn1c(-c2cccnc2C(C)OC)c2c3cc(ccc31)N1CCOC(CC(NC(=O)C(C(C)C)N(C)C(=O)C3(F)CCN(C(=O)C#CC(C)(C)N(C)C)CC3)C(=O)N3CCCC(N3)C(=O)OCC(C)(C)C2)C1 | Condition not met
* CCN1CCN(Cc2ccc(Nc3ncc(F)c(-c4cc(F)c5nc(C)n(C(C)C)c5c4)n3)nc2)CC1 + CCn1c(-c2cc(N3CCN(C)CC3)cnc2C(C)OC)c2c3cc(ccc31)-c1csc(n1)CC(NC(=O)C1CC1C)C(=O)N1CCCC(N1)C(=O)OCC(C)(C)C2 | Condition not met
* NC1c2ccccc2OC12CCN(c1cnc3c(N4CCCc5ncccc54)n[nH]c3n1)CC2 (stereo not given) + CCn1c(-c2cccnc2C(C)OC)c2c3cc(ccc31)N1CCOC(CC(NC(=O)C(C(C)C)N(C)C(=O)C3(F)CCN(C(=O)C#CC(C)(C)N(C)C)CC3)C(=O)N3CCCC(N3)C(=O)OCC(C)(C)C2)C1 | Condition met
* CC1(O)CCCC1n1c(=O)c(C(F)F)cc2cnc(NC3CCN(S(C)(=O)=O)CC3)nc21 (stereo not given) + CCn1c(-c2cccnc2C(C)OC)c2c3cc(ccc31)N1CCOC(CC(NC(=O)C(C(C)C)N(C)C(=O)C3(F)CCN(C(=O)C#CC(C)(C)N(C)C)CC3)C(=O)N3CCCC(N3)C(=O)OCC(C)(C)C2)C1 | Condition not met

In the record for O=C(c1ccc(F)c(F)c1Nc1ccc(I)cc1F)N1CC(O)([C@@H]2CCCCN2)C1 + CCn1c(-c2cccnc2C(C)OC)c2c3cc(ccc31)N1CCOC(CC(NC(=O)C(C(C)C)N(C)C(=O)C3(F)CCN(C(=O)C#CC(C)(C)N(C)C)CC3)C(=O)N3CCCC(N3)C(=O)OCC(C)(C)C2)C1 , is viability, T/C less than 20%?
Condition met

In the record for CC(=O)OC12COC1CC(O)C1(C)C(=O)C(O)C3=C(C)C(OC(=O)C(O)C(NC(=O)OC(C)(C)C)c4ccccc4)CC(O)(C(OC(=O)c4ccccc4)C21)C3(C)C (stereo not given) + CCn1c(-c2cc(N3CCN(C)CC3)cnc2C(C)OC)c2c3cc(ccc31)-c1csc(n1)CC(NC(=O)C1CC1C)C(=O)N1CCCC(N1)C(=O)OCC(C)(C)C2 , is viability, T/C less than 20%?
Condition not met

In the record for Nc1ccn(C2OC(CO)C(O)C2(F)F)c(=O)n1 (stereo not given) + CCn1c(-c2cccnc2C(C)OC)c2c3cc(ccc31)N1CCOC(CC(NC(=O)C(C(C)C)N(C)C(=O)C3(F)CCN(C(=O)C#CC(C)(C)N(C)C)CC3)C(=O)N3CCCC(N3)C(=O)OCC(C)(C)C2)C1 , is viability, T/C less than 20%?
Condition met

In the record for CC(C)NCC(C(=O)N1CCN(c2ncnc3c2C(C)CC3O)CC1)c1ccc(Cl)cc1 (stereo not given) + CCn1c(-c2cc(N3CCN(C)CC3)cnc2C(C)OC)c2c3cc(ccc31)-c1csc(n1)CC(NC(=O)C1CC1C)C(=O)N1CCCC(N1)C(=O)OCC(C)(C)C2 , is viability, T/C less than 20%?
Condition met

###

Record form. Attribute: viability, T/C. Fill in for each entry.
# Test system: 422866-222-R5-J1-PDC complex spheroids viability
# experiment description: Anticancer human tumor 422866-222-R5-J1-PDC cell line growth inhibition [RAS];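 note: spheroids exposed to compounds for 7 days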;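 for viability, T/C: 100% = DMSO vehicle control viability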
# condition notes: second compound 3.16 µM; first compound 0.1 µM; stronger effect = lower value
Give bare numbers, in %.

* C=CC(=O)Nc1cc(Nc2nccc(-c3cn(C)c4ccccc34)n2)c(OC)cc1N(C)CCN(C)C + C#Cc1c(F)ccc2cc(O)cc(-c3ncc4c(N5CC6CCC(C5)N6)nc(OCC56CCCN5CC(F)C6)nc4c3F)c12 | 23.7
* C=CC(=O)N1CCN(c2nc(OCC3CCCN3C)nc3c(F)c(-c4nc(N)cc(C)c4C(F)(F)F)c(Cl)cc23)C(C)C1 (centres undefined) + C#Cc1c(F)ccc2cc(O)cc(-c3ncc4c(N5CC6CCC(C5)N6)nc(OCC56CCCN5CC(F)C6)nc4c3F)c12 | 22.5
* C[C@@H](NC(=O)c1ncnc(N)c1Cl)c1ncc(C(=O)Nc2cc(C(F)(F)F)c(Cl)cn2)s1 + C#Cc1c(F)ccc2cc(O)cc(-c3ncc4c(N5CC6CCC(C5)N6)nc(OCC56CCCN5CC(F)C6)nc4c3F)c12 | 28.4

Quick one: give me viability, T/C for each item below, same order please.
1. CC(=O)OC12COC1CC(O)C1(C)C(=O)C(O)C3=C(C)C(OC(=O)C(O)C(NC(=O)OC(C)(C)C)c4ccccc4)CC(O)(C(OC(=O)c4ccccc4)C21)C3(C)C (centres undefined) + C#Cc1c(F)ccc2cc(O)cc(-c3ncc4c(N5CC6CCC(C5)N6)nc(OCC56CCCN5CC(F)C6)nc4c3F)c12
2. CCN1CCN(Cc2ccc(Nc3ncc(F)c(-c4cc(F)c5nc(C)n(C(C)C)c5c4)n3)nc2)CC1 + C#Cc1c(F)ccc2cc(O)cc(-c3ncc4c(N5CC6CCC(C5)N6)nc(OCC56CCCN5CC(F)C6)nc4c3F)c12
3. CC(C)n1nc(-c2ccc3oc(N)nc3c2)c2c(N)ncnc21 + C#Cc1c(F)ccc2cc(O)cc(-c3ncc4c(N5CC6CCC(C5)N6)nc(OCC56CCCN5CC(F)C6)nc4c3F)c12
4. Cc1nc(N2CCC3(CC2)COC(C)C3N)c(CO)nc1Sc1ccnc(N)c1Cl (centres undefined) + C#Cc1c(F)ccc2cc(O)cc(-c3ncc4c(N5CC6CCC(C5)N6)nc(OCC56CCCN5CC(F)C6)nc4c3F)c12
5. NC1c2ccccc2OC12CCN(c1cnc3c(N4CCCc5ncccc54)n[nH]c3n1)CC2 (centres undefined) + C#Cc1c(F)ccc2cc(O)cc(-c3ncc4c(N5CC6CCC(C5)N6)nc(OCC56CCCN5CC(F)C6)nc4c3F)c12
6. CC1(O)CCCC1n1c(=O)c(C(F)F)cc2cnc(NC3CCN(S(C)(=O)=O)CC3)nc21 (centres undefined) + C#Cc1c(F)ccc2cc(O)cc(-c3ncc4c(N5CC6CCC(C5)N6)nc(OCC56CCCN5CC(F)C6)nc4c3F)c12

[27.4, 28, 19.3, 23.1, 19.8, 27.6]
